Could you please report measured binding ratio at 3.7 nM vs NIH3T3 for the items listed next?
System name: T1, human CD63 (human, UniProt P08962 2-238)
T1 construct: stably transfected in NIH3T3/hCD63; The cell line is named under assay; also called hCD63
T1 sequence: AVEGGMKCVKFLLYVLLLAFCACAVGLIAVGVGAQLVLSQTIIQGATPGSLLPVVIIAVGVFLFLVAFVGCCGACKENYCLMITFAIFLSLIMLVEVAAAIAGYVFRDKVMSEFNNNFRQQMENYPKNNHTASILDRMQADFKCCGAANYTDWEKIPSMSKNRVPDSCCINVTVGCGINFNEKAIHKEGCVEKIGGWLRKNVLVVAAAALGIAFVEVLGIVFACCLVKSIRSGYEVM
Experiment notes: ECL, U87MG cells
All answers are understood in fold, so give the number only.

Recorded binding ratio at 3.7 nM vs NIH3T3 for H1M12362N (antibody, V domains shown) VH: QVQLVESGGGLVKPGGSLRLSCAASGFIFSDYYINWIRQAPGKGLEWVSYTSSSGSTTYYEDSVKGRFTMSRDNARNLVYLQMNSLRAEDTAAYYCVRDLRYNDGLDVWGQGTTVTVSS VL: DILLTQSPSSLSASVGDRVTITCRASQSIRTYLNWYQQKPGRAPKLLVYAASSLQSGVPSRFSGSGSGTDFTLTISSLQPEDFATYFCQQSYDNPPITFGQGTRLAIK , please? 174

Recorded binding ratio at 3.7 nM vs NIH3T3 for H2M13022N (antibody, V domains shown, also called H2bM13022N) VH: QVQLVESGGGLVQPGGSLRLSCAASGFIFGDYYINWIRQAPGKGLQWVSYTSSSGSTTYYEDSVKGRFTMSRDNAKNLVYLQMNSLRAEDTAAYYCVRDLRYNDGLDVWGQGTTVIVSS VL: DILLTQSPSSLSAFVGDRVTITCRASQNIRTYLNWYQQKPGRAPKLLVYAASTLQSGVPSRFSGSGSGTDFTLTISSLQPEDFASYFCQQSYDNPPITFGQGTRLAIK , please? 71

Recorded binding ratio at 3.7 nM vs NIH3T3 for H1M12388N (antibody, V domains shown) VH: QVQLEESGGGVVKAGGSLRLSCAASGFTFSDYYINWIRQAPGKGLEWVSYINNGGYTIYYADSVKGRFTMSRDNAKNSVYLQMNGLRAEDTAFYYCVRDPRSYYGFDYWGQGTLVTVSS VL: DIQMTQSPSSLSASVGDRVTITCRASQSISRFLHWYQQKPGKAPKLLIYGASSLQSGVPSRFSGSGSGTDFTLTISTLQPEDFATYYCQQSYSTPPITFGQGTRLEIK , please? 284
